Molecular target: T1, human insulin receptor (INSR) on CHOK1 cells (human, UniProt P06213 28-1382)
T1 construct: whole, on cells; CHOK1 cells over-expressing human INSR; also called human INSR; hINSR
Experiment: binding to CHO cells expressing human INSR; 1st column headed CHO Human INSR; quantity and unit not printed [cont'd]
property.measured: CHO Human INSR
Just the number, please, no unit after it.

RHF.15.05896.044 (Fab, V domains shown, Untagged Fab) VH: EVQLVETGGGVVQPGRSLRLSCAASGFKFSSYAMHWVRQAPGKGLEWVAVISNSGSNKYYADSVKGRFTISRDNSKNTLYLQMNSLRAEDTAVYYCARHEWGFGFDKWGQGTTVTVSS VL: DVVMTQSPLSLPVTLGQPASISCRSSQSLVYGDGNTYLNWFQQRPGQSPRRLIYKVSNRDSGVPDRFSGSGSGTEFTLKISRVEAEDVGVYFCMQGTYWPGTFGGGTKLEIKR	2.52

Turning to the following binder.
Query: Name the reported CHO Human INSR value associated with the binder RHF.15.05896.015 (Fab, V domains shown, Untagged Fab) VH: EVQLVETGGGVVQPGRSLRLSCAASGFKFSSYAMHWVRQAPGKGLEWVAVISYSGRNKYYADSVKGRFTISRDNSKNTLYLQMNSLRAEDTAVYYCARHEWGFGQDYWGQGTTVTVSS VL: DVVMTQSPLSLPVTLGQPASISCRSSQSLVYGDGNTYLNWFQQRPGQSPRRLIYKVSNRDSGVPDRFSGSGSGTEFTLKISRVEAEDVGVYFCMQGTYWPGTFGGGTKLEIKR
Response: 4.35
